measuredTarget: rat prostanoid IP receptor (Rattus norvegicus, UniProt P43253)
Sequence (P43253 whole entry): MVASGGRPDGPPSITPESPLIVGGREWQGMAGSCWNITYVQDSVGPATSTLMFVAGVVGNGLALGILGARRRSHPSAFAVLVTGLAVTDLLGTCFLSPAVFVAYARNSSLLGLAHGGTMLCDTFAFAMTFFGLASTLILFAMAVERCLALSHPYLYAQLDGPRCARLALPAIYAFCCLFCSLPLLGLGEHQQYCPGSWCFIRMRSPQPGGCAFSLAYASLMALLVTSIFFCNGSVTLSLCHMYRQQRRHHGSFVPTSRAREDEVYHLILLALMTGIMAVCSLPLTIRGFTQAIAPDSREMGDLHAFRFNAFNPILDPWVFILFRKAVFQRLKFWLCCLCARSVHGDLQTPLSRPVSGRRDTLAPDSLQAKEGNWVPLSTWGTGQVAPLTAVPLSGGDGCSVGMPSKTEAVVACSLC
testProtocol: IP receptor activity assay: cyclic AMP accumulation (cAMP Flashplate) in CHO cells
conditionContext: CHO cells expressing the rat prostanoid IP receptor
measuredAttribute: Ki

Entry under test: COc1ccc(C(=O)NCc2ccc(NC3=NCCN3)cc2)cc1 [compound 96] . Its Ki was ~7.59 nM

---

measuredTarget: hERG potassium channel (Homo sapiens)
Construct: expressed in transfected cells; host or cells: CHO-K1 cells
Sequence (Q12809 whole entry): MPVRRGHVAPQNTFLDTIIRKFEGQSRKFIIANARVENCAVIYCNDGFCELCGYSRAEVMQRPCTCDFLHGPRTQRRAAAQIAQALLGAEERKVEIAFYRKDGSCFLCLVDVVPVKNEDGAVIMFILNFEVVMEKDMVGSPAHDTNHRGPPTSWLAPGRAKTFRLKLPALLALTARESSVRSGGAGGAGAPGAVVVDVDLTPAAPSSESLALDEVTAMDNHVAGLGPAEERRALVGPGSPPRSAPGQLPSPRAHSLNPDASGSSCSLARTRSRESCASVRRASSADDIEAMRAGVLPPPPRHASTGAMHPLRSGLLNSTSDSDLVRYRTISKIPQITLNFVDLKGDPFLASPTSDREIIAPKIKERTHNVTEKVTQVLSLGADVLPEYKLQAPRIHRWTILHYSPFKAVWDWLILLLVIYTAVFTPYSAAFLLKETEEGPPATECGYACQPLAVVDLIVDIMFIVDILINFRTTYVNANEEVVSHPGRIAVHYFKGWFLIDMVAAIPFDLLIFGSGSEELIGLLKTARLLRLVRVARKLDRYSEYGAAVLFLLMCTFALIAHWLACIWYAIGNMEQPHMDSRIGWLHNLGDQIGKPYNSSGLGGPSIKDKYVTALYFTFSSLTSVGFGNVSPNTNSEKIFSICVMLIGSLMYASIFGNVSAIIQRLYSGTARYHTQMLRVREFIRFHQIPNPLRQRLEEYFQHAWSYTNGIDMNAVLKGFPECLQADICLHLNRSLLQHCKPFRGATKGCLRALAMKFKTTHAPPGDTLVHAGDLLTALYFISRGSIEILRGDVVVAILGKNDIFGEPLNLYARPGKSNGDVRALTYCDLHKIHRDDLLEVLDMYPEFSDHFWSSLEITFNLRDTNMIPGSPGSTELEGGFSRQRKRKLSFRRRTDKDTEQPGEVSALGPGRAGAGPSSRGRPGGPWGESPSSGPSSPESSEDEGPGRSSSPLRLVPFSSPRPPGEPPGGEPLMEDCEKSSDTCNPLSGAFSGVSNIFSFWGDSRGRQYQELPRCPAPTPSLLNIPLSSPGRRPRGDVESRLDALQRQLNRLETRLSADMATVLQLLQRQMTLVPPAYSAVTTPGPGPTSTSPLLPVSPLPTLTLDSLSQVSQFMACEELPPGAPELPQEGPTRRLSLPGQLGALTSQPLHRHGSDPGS
testProtocol: hERG Potassium Channel Pharmacology Screening (whole-cell patch-clamp, CHO-K1 cells)
Type: cell-based
conditionContext: CHO-K1 cells expressing recombinant human hERG channel, pH 7.4, at 10 uM, read-out: hERG outward current inhibition percentage
measuredAttribute: inhibition at 10 µM (%)
Write it as a number; the unit % goes unstated.

Entry under test: COc1ccc(C(=O)NCc2ccc(NC3=NCCN3)cc2)cc1 [compound 96] . Its inhibition at 10 µM was 10.8
